- Tested on: 786-0
- method: NCI tumour cell line growth inhibition, 48 h
The source made the active and inactive calls. Rule as the data show it: active = GI50 up to about 1.1 µM and inactive = higher.
A collection of compounds and their measured GI50
measuredAttribute: GI50

compound	resultValue
Cc1ccc(C)c(COCCOCn2cc(N3CCOCC3)c(=O)[nH]c2=O)c1	> 100 µM (inactive)
C=CC1C(OC2OC(CO)C(O)C(O)C2O)OC=C(C(=O)OC)C1CC1CC(=O)CC(CCc2ccc(O)cc2)O1 (stereo not drawn)	> 100 µM (inactive)
CC(C)(SCc1ccccc1)C(N)C(=O)O (stereo not drawn)	> 100 µM (inactive)
O=[N+]([O-])c1ccc2nc3ccscc-3c2c1	19.5 µM (inactive)
CCc1n[nH]c(=O)n1NC(=O)CCCC(=O)O	> 100 µM (inactive)
Cn1/c(=N\S(=O)(=O)c2ccccc2)n(S(=O)(=O)c2ccccc2)c2ccccc21	88.5 µM (inactive)
O=S(=O)(c1ccccc1)C(CN1CCCCC1)S(=O)(=O)c1ccccc1	> 100 µM (inactive)
CC(C)(O)/C=C\P(C)(=O)c1ccccc1 (stereo not drawn)	> 100 µM (inactive)
N#CC(C(=O)c1ccccc1F)c1nc2cc(C(F)(F)F)ccc2s1 (stereo not drawn)	19.6 µM (inactive)
COC1(CC[C@@H](C)COC2OC(CO)C(O)C(O)C2O)OC2C[C@H]3[C@@H]4CC[C@H]5C[C@@H](OC6OC(CO)C(OC7OC(CO)C(O)C(O)C7O)C(O)C6OC6OC(C)C(O)C(O)C6O)[C@H](O)C[C@]5(C)[C@H]4CC[C@]3(C)C2[C@@H]1C (stereo partly drawn)	2.02 µM (inactive)
CO[C@]12CC(=O)C3(C(C[C@H]4CC5CCC6=CC(=O)CC[C@]6(OC(C)=O)C5C[C@@]43C)C1)C1C[C@H]3[C@@H]4CCC5=CC(=O)CC[C@]5(OC(C)=O)[C@H]4CC[C@]3(C)C12 (stereo partly drawn)	> 100 µM (inactive)
O=C(O)c1ccc(/C=N\N(CCO)C2=NCCN2)cc1	> 100 µM (inactive)
CCOC(=O)C(C)NC(=O)C(C)NC(=O)C(C)NC(=O)C(C)NC(=O)C(C)NC(=O)OCc1ccccc1 (stereo not drawn)	> 100 µM (inactive)
O=C(C[C@@H]1CCCN2CCCC[C@H]12)N1c2ccccc2Sc2ccc(Cl)cc21	11.1 µM (inactive)
COc1cccc(C2c3cc4c(cc3OC(N3CCOCC3)C2C)OCO4)c1OC (stereo not drawn)	5.22 µM (inactive)
COc1ccc(C(=O)N2CCN(c3ccc4c(c3)OCC(=O)N4)CC2)cc1	> 100 µM (inactive)
O=C(NN1C(=O)CSC1c1ccco1)c1ccncc1 (stereo not drawn)	> 100 µM (inactive)
CC[N+]1(C)CCC(O)(/C=C/c2ccc(Cl)cc2)C(C(=O)/C=C/c2ccc(Cl)cc2)C1 (stereo not drawn)	3.01 µM (inactive)

---

A collection of compounds and their measured GI50
- System: NCI-H522
- method: NCI tumour cell line growth inhibition, 48 h
Activity calls are given as the source filed them. Rule as the data show it: active = GI50 up to about 1.1 µM and inactive = higher.

compound	measuredTarget	GI50
O=S(=O)(c1ccccc1)C(CN1CCCCC1)S(=O)(=O)c1ccccc1	NCI-H522	> 100 µM (inactive)
CC(C)(C)C1(c2ccc(C3(c4ccccc4)Oc4ccccc4S3)[nH]2)Oc2ccccc2S1 (centres undefined)	NCI-H522	> 100 µM (inactive)
COC(=O)/C=C\C(C#N)(C#N)/N=C/c1ccc(C)cc1	NCI-H522	0.378 µM (active)
COc1cc(-c2ccc(/N=N/c3ccc4c(S(=O)(=O)O)cc(S(=O)(=O)O)c(N)c4c3O)c(OC)c2)ccc1/N=N/c1ccc2c(S(=O)(=O)O)cc(S(=O)(=O)O)c(N)c2c1O	NCI-H522	> 100 µM (inactive)

---

- Tested on: EKVX
- method: NCI tumour cell line growth inhibition, 48 h
Active and inactive are the calls of the source. Cut-off read from the data, not from the text of the source: active = GI50 up to about 1.1 µM and inactive = higher.
measuredAttribute: GI50

compound	resultValue
C=CCN1C(=O)/C(=C/c2ccc(Cl)cc2)N=C1SC/C=C/C	26.4 µM (inactive)
C=CCOC(=O)/C(=C\c1ccc(OC)c(OC)c1)c1ccc(OC)c(OC)c1	88.5 µM (inactive)
CC(=O)OC1CCC2C3CCc4c(C)ccc(OS(=O)(=O)c5ccccc5)c4C3CCC12C (stereo not given)	46.9 µM (inactive)
COC(=O)NC(=O)NC(Cc1ccccc1)NC(=O)OCc1ccccc1 (stereo not given)	> 100 µM (inactive)
[N-]=[N+]=NCC1OCC(O)C(OCc2ccccc2)C1OCc1ccccc1 (stereo not given)	48.4 µM (inactive)
COC(=O)CCC(NC(=O)C(C)NC(=O)COC1C(O)C(OC(=O)CCNc2c3ccccc3nc3cccc([N+](=O)[O-])c23)OC(OCc2ccccc2)C1NC(C)=O)C(N)=O (stereo not given)	> 10 µM (inactive)
CCOC(=O)C(NCc1ccccc1)(NC(=O)c1ccccc1)C(F)(F)F (stereo not given)	82.4 µM (inactive)
COCOc1ccc(C(=O)Oc2cccc3c2OC(C)(C)O3)c(OCOC)c1	> 100 µM (inactive)
C=CC1(C)/C(=N\O)C(C)(CC)C(=O)N1O (stereo not given)	> 100 µM (inactive)
CCc1n[nH]c(=O)n1NC(=O)CCCC(=O)O	> 100 µM (inactive)

---

A collection of molecules and their measured GI50
- System: OVCAR-4
- method: NCI tumour cell line growth inhibition, 48 h
The source made the active and inactive calls. No stated cut-off is given here; in the data, active = GI50 up to about 1.1 µM and inactive = higher.
measuredAttribute: GI50

> print(dat)
                                   molecule  measuredtarget          resultvalue
1  COc1ccccc1/C=C1\SC(=S)N(/C=C2\C(=O)Oc3ccccc3C2=O)C1=O         OVCAR-4   33.2 µM (inactive)
2           CC(=O)NC1(c2cc3ccccc3s2)CCCCCC1         OVCAR-4   38.5 µM (inactive)
3  NC(CCc1nc(-c2ccc(Cl)cc2)cs1)C(=O)O (stereo not drawn)         OVCAR-4  > 100 µM (inactive)

---

- Tested on: NCI-H23
- method: NCI tumour cell line growth inhibition, 48 h
Activity calls are given as the source filed them. No stated cut-off is given here; in the data, active = GI50 up to about 1.1 µM and inactive = higher.
Classes used: active, inactive

> print(dat)
                                    compound  categorylabel
 1  COc1ccc(OC(C(=O)O)c2ccccc2)c2c1CCCC2=O (stereo unspecified)       inactive
 2  CCCc1nc(NC#N)nc(C(=O)NC23CC4CC(CC(C4)C2)C3)c1C       inactive
 3    O=Cc1ccc(-c2cc(C=O)c(-c3cccs3)[nH]2)s1       inactive
 4                        Cn1cnc(/C=C/C#N)c1       inactive
 5  CN(C)c1ccc(/C=C(\NC(=O)c2ccccc2)c2nc3ccc4c(c3[nH]2)C(=O)c2ccccc2C4=O)cc1       inactive
 6          CCNc1cc2oc(=O)cc(C(F)(F)F)c2cc1C       inactive
 7  Cc1cn(C2CC(n3cc(Cn4cc(Br)c(=O)[nH]c4=O)nn3)C(CO)O2)c(=O)[nH]c1=O (stereo unspecified)       inactive
 8  COc1ccc2nc3n(c2c1)C(c1c(F)cccc1F)SC3 (stereo unspecified)       inactive
 9              COc1nc(N)c(C(=O)CCl)c(=O)n1C       inactive
10  CC(C)N(CCCNc1c2ccccc2nc2cccc([N+](=O)[O-])c12)C(C)C         active
11       N=C(NCc1ccccc1)N/N=C\c1ccnc2ccccc12       inactive

---

- Tested on: DU-145
- method: NCI tumour cell line growth inhibition, 48 h
The source made the active and inactive calls. Cut-off read from the data, not from the text of the source: active = GI50 up to about 1.1 µM and inactive = higher.
measuredAttribute: GI50

compound	measuredTarget	measuredAttribute	resultValue
COC1OC(=O)C(OC)C(OC)C1OC (stereo not drawn)	DU-145	GI50	> 100 µM (inactive)
OCN(CO)c1ccc2c(c1)Cc1cc(F)ccc1-2	DU-145	GI50	23.2 µM (inactive)
c1ccc(-c2nc3ccccc3n3nnnc23)cc1	DU-145	GI50	> 100 µM (inactive)
Oc1ccc2ccccc2c1-c1c(Nc2ccccc2)ccc2ccccc12	DU-145	GI50	17.3 µM (inactive)
Nc1cc(C(=O)O)nc(O)n1	DU-145	GI50	> 100 µM (inactive)
CC1CCC2(C(=O)O)CCC3(C)C(=CCC4C5(C)CCC(O)C(C)(C)C5CCC43C)C2C1C (stereo not drawn)	DU-145	GI50	9.16 µM (inactive)
N#C/C(=C\c1ccc(Cl)cc1)c1nc(-c2cc3ccccc3oc2=O)cs1	DU-145	GI50	48.5 µM (inactive)
C/C(=N\Nc1nc2ccccc2o1)c1ccc2ccccc2n1	DU-145	GI50	4.41 µM (inactive)
CC(=O)OC1CCC2C3CCc4c(C)ccc(OS(=O)(=O)c5ccccc5)c4C3CCC12C (stereo not drawn)	DU-145	GI50	33.1 µM (inactive)
COC(=O)CCC(NC(=O)C(C)NC(=O)COC1C(O)C(OC(=O)CCNc2c3ccccc3nc3cccc([N+](=O)[O-])c23)OC(OCc2ccccc2)C1NC(C)=O)C(N)=O (stereo not drawn)	DU-145	GI50	2.6 µM (inactive)
CC(=O)[C@]1(O)Cc2c(O)c3c(c(O)c2[C@@H](OC2CC(N)C(O)C(C)O2)C1)C(=O)c1c(OCc2ccccc2)cccc1C3=O (stereo partly drawn)	DU-145	GI50	1.63 µM (inactive)
O=C(Nc1ccc(N2C(=O)CSC2c2ccccc2O)cc1)c1ccc(N2C(=O)CSC2c2ccccc2O)cc1 (stereo not drawn)	DU-145	GI50	> 100 µM (inactive)
CC(C)(C)c1cc(C2=NN(c3ccccc3)C(c3ccccc3)C2)cc(C(C)(C)C)c1O (stereo not drawn)	DU-145	GI50	> 100 µM (inactive)
CC1(C)OCC2OC3(c4nc(C#N)c(N)o4)OC(C)(C)OC3C2O1 (stereo not drawn)	DU-145	GI50	> 100 µM (inactive)
[N-]=[N+]=NC1=C(c2ccccc2)C(=O)c2cccc3cccc1c23	DU-145	GI50	28.9 µM (inactive)
CC1(C)CC(=O)C(=CNC(N)=S)C(=O)C1	DU-145	GI50	> 100 µM (inactive)
C=CCN1C(=O)/C(=C/c2ccc(Cl)cc2)N=C1SC/C=C/C	DU-145	GI50	60.8 µM (inactive)
N=C(N)SC1c2ccccc2-c2cc([N+](=O)[O-])ccc21 (stereo not drawn)	DU-145	GI50	3.88 µM (inactive)
COc1cc(S(=O)(=O)N/N=C/C=C/c2ccccc2)c(OC)cc1NC(C)=O	DU-145	GI50	31.8 µM (inactive)
Nc1nc2c(c(-c3cccc(Cl)c3)n1)COC/C2=C\c1cccc(Cl)c1	DU-145	GI50	80.2 µM (inactive)
O=C1CCC[C@H]2O[C@@H](COCc3ccccc3)C[C@@H]12	DU-145	GI50	> 100 µM (inactive)
NC(=S)NN=C1Cc2ccccc2C1	DU-145	GI50	> 100 µM (inactive)
NC(=S)NS(=O)(=O)c1ccc(F)cc1	DU-145	GI50	> 100 µM (inactive)
N#CC(C(=O)c1ccccc1F)c1nc2cc(C(F)(F)F)ccc2s1 (stereo not drawn)	DU-145	GI50	28.3 µM (inactive)
O=P(O)(O)C=C=C1CCCCC1	DU-145	GI50	> 100 µM (inactive)
C[C@]12c3c4cc(NC(=O)C(=O)NCc5ccc(-c6ccccn6)nc5)cc3Oc3cc(NC(=O)C(=O)NCc5ccc(-c6ccccn6)nc5)cc(c31)OC1C=C(NC(=O)C(=O)NCc3ccc(-c5ccccn5)nc3)C=C(O4)C12 (stereo partly drawn)	DU-145	GI50	18.8 µM (inactive)
O=C1NC(N2CCCC(CO)C2)=N/C1=C\c1ccccc1 (stereo not drawn)	DU-145	GI50	> 100 µM (inactive)
CSc1nc(-c2ccccc2)[nH]c(=O)n1	DU-145	GI50	> 100 µM (inactive)
